%inh 5-HT6 exp_2 by entry:
target: human 5-HT6 receptor (Homo sapiens, UniProt P50406); construct: expressed in transfected cells; experiment: GPCR radioligand binding assay, [3H]-LSD displacement, HEK293 membranes; settings: 5-HT6; replicate exp_2
Sequence (P50406 whole entry): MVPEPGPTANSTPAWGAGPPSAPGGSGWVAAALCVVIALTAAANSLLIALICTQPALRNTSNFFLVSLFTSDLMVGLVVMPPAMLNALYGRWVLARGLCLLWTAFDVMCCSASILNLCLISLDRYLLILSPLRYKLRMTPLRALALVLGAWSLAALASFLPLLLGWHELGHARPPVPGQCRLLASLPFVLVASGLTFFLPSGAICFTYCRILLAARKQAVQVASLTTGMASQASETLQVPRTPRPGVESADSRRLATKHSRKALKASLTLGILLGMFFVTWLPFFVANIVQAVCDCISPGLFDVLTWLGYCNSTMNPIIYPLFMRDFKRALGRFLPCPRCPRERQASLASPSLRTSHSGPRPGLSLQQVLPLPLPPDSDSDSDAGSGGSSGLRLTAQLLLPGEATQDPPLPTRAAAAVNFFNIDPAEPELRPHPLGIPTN
Supply the numeric figure in %, leaving out any unit text.

Before answering, review these 5 worked examples.
1) Cc1ccc(CCNc2ccccc2)cn1    -9
2) Clc1ccc2nnnn2n1    31
3) O=C(O)CC1CCC(=O)N1 (stereo not shown)    15
4) Cc1ccc(C)n1Cc1ccccc1Cl    23
5) COc1ccc(CN2CCNCC2)cc1F    38

What %inh 5-HT6 exp_2 value was documented for this molecule, "Cn1c(CO)nc2ccccc21" ?
38

What %inh 5-HT6 exp_2 value was documented for this molecule, "CCCN1C(=O)CC(=O)NC1=S" ?
41

What %inh 5-HT6 exp_2 value was documented for this molecule, "O=C(O)c1ccc(CN2CCOCC2)cc1" ?
41

What %inh 5-HT6 exp_2 value was documented for this molecule, "CC1(C)OC(=O)c2cc(Br)c(O)cc2O1" ?
45

What %inh 5-HT6 exp_2 value was documented for this molecule, "CS(=O)(=O)c1ccc(OC(F)(F)F)cc1" ?
8
